B1: POMT2 (parent)
chain: LRGGGQVLLGWTLHYFPFFLMGRV

# Variants of: B1
# Procedure Summary: protein stability index of a GFP-peptide fusion (GPS, HEK-293T) (PSI 1-6); higher = more stable;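 also: lentivirally expressed fusions sorted by FACS into six bins by GFP to DsRed ratio, PSI derived from sequencing read proportions per bin multiplied by bin number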
# Condition Description: c terminus: a fixed tail appended
Known protein stability index of a selection of variants
Experimental Endpoint: protein stability index

biopolymer_sequence="LDGGGQVLLGWTLHYFPFFLMGRV [R2D]" experimental_endpoint="protein stability index" measured_result=3.49
biopolymer_sequence="LRGGGQVLLTWTLHYFPFFLMGRV [G10T]" experimental_endpoint="protein stability index" measured_result=2.89
biopolymer_sequence="LRGGGQVLLGWTLHYFPFFLMGRC [V24C]" experimental_endpoint="protein stability index" measured_result=1.83
biopolymer_sequence="LRGGGQVLLGWTLHKFPFFLMGRV [Y15K]" experimental_endpoint="protein stability index" measured_result=2.92
biopolymer_sequence="LRGGGQVLLGCTLHYFPFFLMGRV [W11C]" experimental_endpoint="protein stability index" measured_result=3.48
biopolymer_sequence="LRGGGQVLLDWTLHYFPFFLMGRV [G10D]" experimental_endpoint="protein stability index" measured_result=3.44
biopolymer_sequence="LRGGGQVLLGWTWHYFPFFLMGRV [L13W]" experimental_endpoint="protein stability index" measured_result=3.5
biopolymer_sequence="LSGGGQVLLGWTLHYFPFFLMGRV [R2S]" experimental_endpoint="protein stability index" measured_result=2.59
biopolymer_sequence="LLGGGQVLLGWTLHYFPFFLMGRV [R2L]" experimental_endpoint="protein stability index" measured_result=2.63
biopolymer_sequence="LRGGGQVLLGWTLFYFPFFLMGRV [H14F]" experimental_endpoint="protein stability index" measured_result=3.28
biopolymer_sequence="LRGGGQVLLGQTLHYFPFFLMGRV [W11Q]" experimental_endpoint="protein stability index" measured_result=3
biopolymer_sequence="LRGGGQVLLPWTLHYFPFFLMGRV [G10P]" experimental_endpoint="protein stability index" measured_result=3.23
biopolymer_sequence="LRGGGQVLLGWTLHYFPFFLMGSV [R23S]" experimental_endpoint="protein stability index" measured_result=2.85
biopolymer_sequence="LRGGGQQLLGWTLHYFPFFLMGRV [V7Q]" experimental_endpoint="protein stability index" measured_result=1.21
biopolymer_sequence="LRGGGQVLLGWTLHYFPFGLMGRV [F19G]" experimental_endpoint="protein stability index" measured_result=4.57
biopolymer_sequence="LRGGGQVLLGWTLDYFPFFLMGRV [H14D]" experimental_endpoint="protein stability index" measured_result=4.14
biopolymer_sequence="LRGGGQVLLGWTEHYFPFFLMGRV [L13E]" experimental_endpoint="protein stability index" measured_result=2.93
biopolymer_sequence="LRGGGQVLLGWTLPYFPFFLMGRV [H14P]" experimental_endpoint="protein stability index" measured_result=2.43
biopolymer_sequence="LRGGGQVLLGWTDHYFPFFLMGRV [L13D]" experimental_endpoint="protein stability index" measured_result=1.29
biopolymer_sequence="LRGGGQVLLGWTLHYFPFFWMGRV [L20W]" experimental_endpoint="protein stability index" measured_result=2.38
biopolymer_sequence="LRGYGQVLLGWTLHYFPFFLMGRV [G4Y]" experimental_endpoint="protein stability index" measured_result=2.25
biopolymer_sequence="LRGGEQVLLGWTLHYFPFFLMGRV [G5E]" experimental_endpoint="protein stability index" measured_result=3.02
biopolymer_sequence="LRGGGQVLLGYTLHYFPFFLMGRV [W11Y]" experimental_endpoint="protein stability index" measured_result=1.2
biopolymer_sequence="LRGRGQVLLGWTLHYFPFFLMGRV [G4R]" experimental_endpoint="protein stability index" measured_result=1.38
biopolymer_sequence="LRGGGQVLLGWTLHYFPFFLWGRV [M21W]" experimental_endpoint="protein stability index" measured_result=4.41
biopolymer_sequence="LRGGGQKLLGWTLHYFPFFLMGRV [V7K]" experimental_endpoint="protein stability index" measured_result=4.17
biopolymer_sequence="LRGGGQVLLGWTLHYFPFFLMGRY [V24Y]" experimental_endpoint="protein stability index" measured_result=3.27
biopolymer_sequence="LRGGGQVLLGWTLHYFPFYLMGRV [F19Y]" experimental_endpoint="protein stability index" measured_result=2.17
biopolymer_sequence="LRGGGQVLLVWTLHYFPFFLMGRV [G10V]" experimental_endpoint="protein stability index" measured_result=2.29
biopolymer_sequence="LRGGGQVLLGWTLHYFPFFLMGDV [R23D]" experimental_endpoint="protein stability index" measured_result=1.88
biopolymer_sequence="LRGGGQVLLGWTLHYFPFFPMGRV [L20P]" experimental_endpoint="protein stability index" measured_result=5.95
biopolymer_sequence="LRGGGQVLLGWTLHYFPNFLMGRV [F18N]" experimental_endpoint="protein stability index" measured_result=2.04
biopolymer_sequence="LRGGGQVLLGWTLHYFRFFLMGRV [P17R]" experimental_endpoint="protein stability index" measured_result=3.18
biopolymer_sequence="LTGGGQVLLGWTLHYFPFFLMGRV [R2T]" experimental_endpoint="protein stability index" measured_result=1.36
biopolymer_sequence="LRGGYQVLLGWTLHYFPFFLMGRV [G5Y]" experimental_endpoint="protein stability index" measured_result=3.6
